# experimental-protocol: Toxicity in mice, median lethal dose by intraperitoneal injection
# Type: in vivo, mouse
# assay-context: mouse, in vivo, ip, read-out: LD50 ± standard deviation
Listing: LD50 of selected molecules

molecule: CC(=O)c1cc(Nc2cc(C)nc(N)n2)cc(C(C)=O)c1 [Compound No. 11]
units-of-measure: mg/kg
inequality-operator: >
LD50: 160
//
molecule: CC(=O)c1ccc(Nc2cc(C)nc(N)n2)cc1 [Compound No. 17]
units-of-measure: mg/kg
inequality-operator: =
LD50: 48.9
//
molecule: CC(=O)c1cccc(Nc2cc(C)nc(N)n2)c1 [Compound No. 15]
units-of-measure: mg/kg
inequality-operator: =
LD50: 49
//
molecule: CC(=O)c1cc(N)cc(C(C)=O)c1 [CNI-1894, 3,5-diacetylaniline]
units-of-measure: mg/kg
inequality-operator: =
LD50: 259
//
molecule: CC(=O)c1cc(Nc2cc(C)[n+](C)c(N)n2)cc(C(C)=O)c1 [CNI-0294]
units-of-measure: mg/kg
inequality-operator: =
LD50: 588

---

# experimental-protocol: Pharmacokinetics in mice (plasma, HPLC)
# Format: in vivo, mouse
# assay-context: female, ND4 Swiss Webster, mouse, plasma, po, 50 mg/kg, vehicle water
property-name: Cmax (ng/mL)

compound: CC(=O)c1cc(Nc2cc(C)nc(N)n2)cc(C(C)=O)c1 [Compound No. 11]
property-name: Cmax
assay-value: 350

---

# System: Plasmodium falciparum
# experimental-protocol: Antimalarial activity in vitro, [3H]-hypoxanthine incorporation
# Assay type: cell-based
# assay-context: Plasmodium falciparum, clone D10; ± standard deviation; read-out: IC50
property-name: IC50 (µM)

smiles-repr: CC(=O)c1cc(Nc2cc(C)[n+](C)c(N)n2)cc(C(C)=O)c1
property-name: IC50
assay-value: 4

---

# Tested on: HIV-1ADA
# experimental-protocol: Anti-HIV activity in primary human monocytes, day 9 (Table IX, FIG. 12C)
# Assay type: cell-based
# assay-context: Human immunodeficiency virus 1, Monocyte, 216 h
pIC50: −log10 of the molar value.

smiles-repr: CC(=O)c1cc(Nc2cc(C)[n+](C)c(N)n2)cc(C(C)=O)c1
pIC50: 7.30

---

# Tested on: Plasmodium falciparum
# experimental-protocol: Antimalarial activity in vitro, [3H]-hypoxanthine incorporation
# Assay type: cell-based
# assay-context: Plasmodium falciparum, clone W2mef; ± standard deviation; read-out: IC50

compound: CCc1nc(N)nc(N)c1-c1ccc(Cl)cc1 [Pyrimethamine]
system-name: Plasmodium falciparum
units-of-measure: µM
IC50: 17.8

---

# experimental-protocol: Pharmacokinetics in mice (plasma, HPLC)
# Assay type: in vivo, mouse
# assay-context: female, ND4 Swiss Webster, plasma; mouse, oral, 50 mg/kg, vehicle DMSO/peanut oil; AUCoral/AUCi.p.; read-out: Bioavailability
property-name: bioavailability

smiles-repr: CC(=O)c1cc(Nc2cc(C)[n+](C)c(N)n2)cc(C(C)=O)c1
property-name: bioavailability
assay-value: 6%

---

# experimental-protocol: Pharmacokinetics in mice (plasma, HPLC)
# Format: in vivo, mouse
# assay-context: female, ND4 Swiss Webster, plasma; mouse, oral, 50 mg/kg, vehicle water; AUCoral/AUCi.p.; read-out: Bioavailability
property-name: bioavailability (%)

smiles-repr: CC(=O)c1cc(Nc2cc(C)nc(N)n2)cc(C(C)=O)c1
assay-value: 15
